Source: the RNAGym collection of RNA variant scans (doi:10.1093/nar/gkz1192)

Hi there, I'd appreciate the recorded self-cleavage for every entry that follows.
B1: CPEB3 Ribozyme (parent)
chain: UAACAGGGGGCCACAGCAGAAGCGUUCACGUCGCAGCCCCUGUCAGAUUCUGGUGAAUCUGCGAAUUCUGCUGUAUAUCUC

- Variants of: B1
- assayOverview: self-cleavage, relative activity (ratio to wild type); higher = more cleavage; in vitro, sequencing

Below, 4 variants whose answers are already recorded.
- variantCode: "U41G U51G"
  self-cleavage: 0.27
- variantCode: "C37A U78A"
  self-cleavage: 0.2
- variantCode: "U31A U41G"
  self-cleavage: 0.29
- variantCode: "C29A A64G"
  self-cleavage: 0.37

Take each entry in turn and give its self-cleavage.
1. G63A A77U
2. C23A A45G
3. C12G G52A
4. G24A U58A

result:
1: 0.99; 2: 0.23; 3: 0.49; 4: 0.34
